target or system: T1, Human GDF15 Fc (human, UniProt Q99988 195-308, limits assumed, biotinylated (EZ-Link Sulfo-NHS-Biotinylation Kit) in the SPR assay)
T1 construct: also called human GDF15-Fc fusion; biotinylated Human GDF15 Fc; not shown: Fc part
T1 sequence: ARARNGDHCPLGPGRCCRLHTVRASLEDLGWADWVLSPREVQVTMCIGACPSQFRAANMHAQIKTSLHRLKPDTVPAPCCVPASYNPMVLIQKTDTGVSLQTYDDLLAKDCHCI
measurement description: SPR Biacore 8K; biotinylated antigen captured, Fab analyte
The following binders are shown together with reported kon values.
Numbers only; they are read as M⁻¹ s⁻¹.

Sample GDF15 antibody agent Clone M, Fab (Fab, V domains shown, Fab; CH1 and CL of the Fab not specified; also called Fab of Clone M) VH: QVQLVQSGAEVKKPGASVKVSCKASGYTFDSYGINWVRQAPGQGLEWMGWISAYSGDTAYAQELQGRVTMTTDTSTSTAYMELRSLRSDDTAVYYCVRDTQYGGSPYWGQGTLVTVSS VL: EIVMTQSPATLSVSPGERATLSCRASQSVSSNLAWYQQKPGQAPRLLIYGASTRATGIPARFSGSGSGTEFTLTISSLQSEDFAVYYCQQYNNWPITFGGGTKVEIK — what was its kon?
3.2e+06

Dear colleague, I am looking for the recorded kon of the following binder: GDF15 antibody agent Clone I, Fab (Fab, V domains shown, Fab; CH1 and CL of the Fab not specified; also called Fab of Clone I) VH: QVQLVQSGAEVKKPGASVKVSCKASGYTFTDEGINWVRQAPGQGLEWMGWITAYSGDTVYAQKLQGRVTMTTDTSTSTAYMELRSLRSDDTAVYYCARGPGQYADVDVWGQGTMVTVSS VL: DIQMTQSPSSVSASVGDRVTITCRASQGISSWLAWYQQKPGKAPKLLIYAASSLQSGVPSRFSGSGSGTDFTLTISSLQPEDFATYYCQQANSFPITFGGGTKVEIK
3.85e+06

# query: kon of entry GDF15 antibody agent Clone T, Fab (Fab, V domains shown, Fab; CH1 and CL of the Fab not specified; also called Fab of Clone T) VH: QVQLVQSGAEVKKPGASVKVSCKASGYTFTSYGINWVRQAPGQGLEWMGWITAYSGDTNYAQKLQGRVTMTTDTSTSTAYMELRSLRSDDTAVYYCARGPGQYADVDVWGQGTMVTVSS VL: DIQMTQSPSSVSASVGDRVTITCRASQGISSWLAWYQQKPGKAPKLLIYAASSLQSGVPSRFSGSGSGTDFTLTISSLQPEDFATYYCQQASQFPITFGGGTKVEIK
1.1e+06
